Below, each entry is listed with its recorded CC50 at 72 h.
# Experiment description: Cytotoxicity in HCV-1a replicon cells, Promega CellTiter-Glo cell viability assay

Answered examples (2):
Nc1nc(N2CCN(C(=O)COc3ccccc3)CC2)c2nc(CCc3ccc(F)cc3)sc2n1    > 44.4 µM
Nc1nc(N2CCN(C(=O)COc3ccc(Cl)cc3)CC2)c2nc(CCc3ccc(F)cc3)sc2n1    > 44.4 µM

Here is another compound to look at.
Which CC50 at 72 h reading was recorded for the compound `Cc1nc2c(N3CCN(C(=O)COc4ccc(Cl)cc4)CC3)nc(N)nc2[nH]1` ?
> 44.4 µM

====

# Experiment description: in vitro
# Test context: human
Outcome measure: CC50 (µM)
Number in µM, nothing else.

Answered examples (5):
Nc1nc(N2CCN(C(=O)COc3ccc(Cl)cc3)CC2)c2nc(Cc3ccc(F)cc3)sc2n1 [Example 46]    164
Nc1nc(N2CCN(C(=O)COc3ccc(Br)cc3)CC2)c2nc(CCc3ccc(F)cc3)sc2n1 [Example 52]    95.7
Nc1nc(N2CCN(Cc3ccccc3)CC2)c2nc(-c3ccc(F)cc3)sc2n1 [Example 39]    45.2
Cc1cccc(NC(=O)N2CCN(c3nc(N)nc4sc(C(C)c5ccc(F)cc5)nc34)CC2)c1 (centres unmarked) [Example 68]    30.3
Nc1nc(N2CCN(C(=O)COc3ccc(Cl)cc3)CC2)c2cc(-c3ccc(F)cc3)sc2n1 [Example 326]    27.7

Which CC50 reading was recorded for the molecule Nc1nc(N2CCN(C(=O)COc3ccc(F)cc3)CC2)c2nc(CCc3ccc(F)cc3)sc2n1 [Example 51] ?
210

Which CC50 reading was recorded for the molecule Cc1cccc(NC(=O)N2CCN(c3nc(N)nc4sc(-c5ccc(F)cc5)nc34)CC2)c1 [Example 43] ?
15.8

====

Below, each entry is listed with its recorded EC50.
# Tested on: poliovirus (PV type 2)
# Experiment description: microbe, parasite or virus in culture
# Format: cell-based
# Test context: Enterovirus C, HeLa, read-out: PV-2 EC50

Answered examples (4):
Cc1nc(N2CCN(C(=O)COc3ccc(Cl)cc3)CC2)c2cc(-c3ccc(F)cc3)sc2n1    ≥ 50 µg/mL
Nc1nc(N2CCN(C(=O)COc3ccc(Cl)cc3)CC2)c2nc(C3CCCCC3)oc2n1    > 50 µg/mL
Cc1cccc(NC(=O)N2CCN(c3nc(-c4ccccc4)nc4sc(-c5ccc(F)cc5)cc34)CC2)c1    ≥ 50 µg/mL
COCCNC(=O)c1nc(N2CCN(C(=O)COc3ccc(Cl)cc3)CC2)c2cc(-c3ccc(F)cc3)sc2n1    ≥ 50 µg/mL

Which EC50 reading was recorded for the molecule Nc1nc(N2CCN(C(=O)COc3ccc(Cl)cc3)CC2)c2nc(C(Cc3ccccc3)c3ccc(F)cc3)sc2n1 (centres unmarked) ?
≥ 50 µg/mL

====

# System: hRV-14
# Experiment description: Rhinovirus type 14 antiviral assay in Hela Rh cells, MTS readout
# Type: cell-based, Human rhinovirus
# Test context: Rhinovirus B, HRV14, HeLa Rh, Hela Rh cells; read-out: hRV-14 EC50
Below, each entry is listed with its recorded EC50.

Answered examples (2):
Cc1ccc(CCc2nc3c(N4CCN(C(=O)COc5ccc(Br)cc5)CC4)nc(N)nc3s2)cc1 [Example 258]    > 50 µg/mL
Nc1nc(N2CCN(C(=O)COc3ccc(F)cc3)CC2)c2nc(-c3ccc(F)cc3)sc2n1 [Example 233]    < 0.02 µg/mL

Which EC50 reading was recorded for the molecule Nc1nc(N2CCN(C(=O)COc3ccc(OC(F)(F)F)cc3)CC2)c2nc(CCc3ccc(F)cc3)sc2n1 [Example 226] ?
> 50 µg/mL

Which EC50 reading was recorded for the molecule Nc1nc(N2CCN(C(=O)COc3cccc([N+](=O)[O-])c3)CC2)c2nc(CCc3ccc(F)cc3)sc2n1 [Example 131] ?
> 50 µg/mL

Which EC50 reading was recorded for the molecule Cc1ccc(CCc2nc3c(N4CCN(C(=O)COc5ccc(Cl)cc5)CC4)nc(N)nc3s2)cc1 [Example 260] ?
> 50 µg/mL

Which EC50 reading was recorded for the molecule Nc1nc(N2CCN(C(=O)COc3ccc(Cl)cc3)CC2)c2nc(CCCCc3ccc(F)cc3)sc2n1 [Example 292] ?
> 50 µg/mL

Which EC50 reading was recorded for the molecule COc1ccc(OCC(=O)N2CCN(c3nc(N)nc4sc(-c5ccc(F)cc5)nc34)CC2)cc1 [Example 234] ?
> 50 µg/mL

Which EC50 reading was recorded for the molecule COc1ccc(OCC(=O)N2CCN(c3nc(N)nc4sc(CCc5ccc(Br)cc5)nc34)CC2)cc1 [Example 298] ?
1.23 µg/mL

Which EC50 reading was recorded for the molecule Nc1nc(N2CCN(C(=O)COc3ccc(Br)cc3)CC2)c2nc(-c3ccc(F)cc3)sc2n1 [Example 235] ?
0.04 µg/mL

Which EC50 reading was recorded for the molecule COc1ccc(OCC(=O)N2CCN(c3nc(N)nc4sc(CCCCc5ccc(F)cc5)nc34)CC2)cc1 [Example 293] ?
> 50 µg/mL

Which EC50 reading was recorded for the molecule CC(=O)c1ccc(OCC(=O)N2CCN(c3nc(N)nc4sc(CCc5ccc(F)cc5)nc34)CC2)cc1 [Example 227] ?
> 50 µg/mL

Which EC50 reading was recorded for the molecule COc1cccc(CCc2nc3c(N4CCN(C(=O)COc5ccc(Cl)cc5)CC4)nc(N)nc3s2)c1 [Example 255] ?
0.53 µg/mL

Which EC50 reading was recorded for the molecule COc1ccc(OCC(=O)N2CCN(c3nc(N)nc4sc(CCc5ccc(C)cc5)nc34)CC2)cc1 [Example 259] ?
> 50 µg/mL

Which EC50 reading was recorded for the molecule CCCCCc1nc2c(N3CCN(C(=O)COc4ccc(OC)cc4)CC3)nc(N)nc2s1 [Example 296] ?
9.93 µg/mL

Which EC50 reading was recorded for the molecule Nc1nc(N2CCN(C(=O)COc3ccc(Br)cc3)CC2)c2nc(CCc3ccc(F)cc3)sc2n1 [Example 52] ?
> 50 µg/mL

Which EC50 reading was recorded for the molecule COc1ccc(OCC(=O)N2CCN(c3nc(N)nc4sc(-c5ccc(C)cc5)nc34)CC2)cc1 [Example 294] ?
29.1 µg/mL

Which EC50 reading was recorded for the molecule COC(=O)c1ccc(OCC(=O)N2CCN(c3nc(N)nc4sc(CCc5ccc(F)cc5)nc34)CC2)cc1 [Example 225] ?
> 50 µg/mL

Which EC50 reading was recorded for the molecule COc1ccc(CCc2nc3c(N4CCN(C(=O)COc5ccc(Br)cc5)CC4)nc(N)nc3s2)cc1OC [Example 256] ?
2.81 µg/mL

Which EC50 reading was recorded for the molecule Nc1nc(N2CCN(C(=O)COc3ccc(Cl)cc3)CC2)c2nc(CCCc3ccc(F)cc3)sc2n1 [Example 290] ?
> 50 µg/mL

Which EC50 reading was recorded for the molecule Nc1nc(N2CCN(C(=O)COc3ccc(O)cc3)CC2)c2nc(CCc3ccc(F)cc3)sc2n1 [Example 224] ?
3.44 µg/mL

====

# Test system: hRV-45
# Experiment description: Rhinovirus type 45 antiviral assay in Hela Rh cells, MTS readout
# Assay type: cell-based, Human rhinovirus
# Test context: Human rhinovirus sp., HRV45, HeLa Rh, Hela Rh cells; read-out: hRV-45 EC50
Outcome measure: EC50 (µg/mL)
Number in µg/mL, nothing else.

Answered examples (3):
COc1cccc(CCc2nc3c(N4CCN(C(=O)COc5ccc(Br)cc5)CC4)nc(N)nc3s2)c1 [Example 254]    4.87
COc1ccc(OCC(=O)N2CCN(c3nc(N)nc4sc(Cc5ccc(F)cc5)nc34)CC2)cc1 [Example 230]    1.13
COc1ccc(OCC(=O)N2CCN(c3nc(N)nc4sc(CCCCc5ccc(F)cc5)nc34)CC2)cc1 [Example 293]    35.4

Which EC50 reading was recorded for the compound COc1ccc(OCC(=O)N2CCN(c3nc(N)nc4sc(CCc5ccc(Br)cc5)nc34)CC2)cc1 [Example 298] ?
4.56

Which EC50 reading was recorded for the compound COc1cccc(CCc2nc3c(N4CCN(C(=O)COc5ccc(Cl)cc5)CC4)nc(N)nc3s2)c1 [Example 255] ?
2.34

Which EC50 reading was recorded for the compound Cc1ccc(CCc2nc3c(N4CCN(C(=O)COc5ccc(Br)cc5)CC4)nc(N)nc3s2)cc1 [Example 258] ?
35.4

Which EC50 reading was recorded for the compound COC(=O)c1ccc(OCC(=O)N2CCN(c3nc(N)nc4sc(CCc5ccc(F)cc5)nc34)CC2)cc1 [Example 225] ?
43.1

Which EC50 reading was recorded for the compound Nc1nc(N2CCN(C(=O)COc3cccc([N+](=O)[O-])c3)CC2)c2nc(CCc3ccc(F)cc3)sc2n1 [Example 131] ?
9.05

Which EC50 reading was recorded for the compound CC(C)(C)OC(=O)N[C@@H]1CCN(c2nc(N)nc3sc(-c4ccc(F)cc4)cc23)C1 [Example 338] ?
4.23

Which EC50 reading was recorded for the compound CCCCCc1nc2c(N3CCN(C(=O)COc4ccc(OC)cc4)CC3)nc(N)nc2s1 [Example 296] ?
4.13

Which EC50 reading was recorded for the compound COc1ccc(OCC(=O)N2CCN(c3nc(N)nc4sc(CCc5ccc(C)cc5)nc34)CC2)cc1 [Example 259] ?
2.56

Which EC50 reading was recorded for the compound CCCCCc1nc2c(N3CCN(C(=O)COc4ccc(Cl)cc4)CC3)nc(N)nc2s1 [Example 297] ?
2.29

Which EC50 reading was recorded for the compound Cc1ccc(CCc2nc3c(N4CCN(C(=O)COc5ccc(Cl)cc5)CC4)nc(N)nc3s2)cc1 [Example 260] ?
2.46
